test system: Puccinia recondita f. sp. tritici; assay: Test H: wheat leaf rust, test suspension sprayed after inoculation of wheat seedlings, visual disease rating; type: in vivo; conditions: 200 ppm; 100 = 100% disease control, 0 = no control relative to controls
The molecules listed here are annotated with their Test H disease control rating.
Just the number in %, nothing appended.

Cc1nc(Cl)n(-c2ccc(F)cc2Cl)c1-c1ccc(Cl)cc1 = 0
Fc1cc(F)c(-c2c(Cl)nc(Br)n2-c2ccc(OC(F)F)cc2)c(F)c1 = 97
Cc1ncn(-c2ccc(Cl)c(F)c2)c1-c1cccnc1Cl = 0
CCOc1ccc(F)c(-c2c(Cl)ncn2-c2ccc(Cl)cc2)c1F = 9
Fc1cccc(F)c1-c1c(Cl)nc(Br)n1-c1ccc(Cl)nc1 = 98
Cc1nc(Cl)c(Cc2c(F)cc(F)cc2F)n1-c1ccc(Cl)cc1 = 41

Record request: Test H disease control rating value, item Fc1cc(-n2c(Cl)nc(Cl)c2-c2ccc(Br)cn2)ccc1Cl 0
